Origin of measurements: BigSolDB 2.1

Settings: in n-propanol, 288.14 K
Recorded Metric: solubility (mole fraction)
// no unit, no text: just the number

Can you look up the measured solubility (mole fraction) of `CS(N)(=O)=O` for me?
0.0153

----------
Conditions: in methanol, 303.3 K
Recorded Metric: solubility (mole fraction)
// no unit, no text: just the number

Can you look up the measured solubility (mole fraction) of `CS(N)(=O)=O` for me?
0.163

----------
Conditions: in methyl propionate, 298.14 K
Recorded Metric: solubility (mole fraction)
// no unit, no text: just the number

Can you look up the measured solubility (mole fraction) of `CS(N)(=O)=O` for me?
0.0324

----------
Conditions: in ethyl acetate, 303.18 K
Recorded Metric: solubility (mole fraction)

Can you look up the measured solubility (mole fraction) of `CS(N)(=O)=O` for me?
0.0458
